Origin of the recorded values: patent US20210032312A1

- target.or.system: T1, In house human CD8A-Fc (human, UniProt P01732 22-182, limits assumed)
- T1 construct: Captured on goat anti-human Fc on a ProteOn GLC chip; also called hCD8A-Fc; recombinant human CD8 alpha; not shown: linker with flag (and polyhistidine) tag and Fc of human IgG1
- T1 sequence (P01732 22-182 limits assumed): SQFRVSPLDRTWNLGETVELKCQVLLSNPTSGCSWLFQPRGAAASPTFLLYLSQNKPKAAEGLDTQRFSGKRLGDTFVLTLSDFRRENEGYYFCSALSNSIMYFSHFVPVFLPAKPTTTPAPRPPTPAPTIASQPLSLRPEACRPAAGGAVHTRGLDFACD
- test.method.notes: SPR (ProteOn), captured hCD8A-Fc
We begin with a simple list: items and their reported koff.
The response must be a number in s⁻¹ with no trailing unit.

binder	koff [s⁻¹]
P282DR9P1359_C12 (designed binder, FN3 domain) LPAPKNLVVSRVTEDSARLSWTAPDAAFDSFYISYPEWPVPGEAIVLTVPGSERSYDLTGLKPGTEYWVVIYGVKGGALSVPLSAIFTT	0.000978

Query: Could you please provide reported koff for P283AR9P1362_B8 (designed binder, FN3 domain) LPAPKNLVVSRVTEDSARLSWWTSPLPFDSFLIQYQESEKVGEAIVLTVPGSERSYDLTGLKPGTEYTVSIYGVDVKYDIDSRPISSNPLSAIFTT ? Thanks!
Result: 0.000648

Query: Could you please provide reported koff for P282ER9P1360_C4 (designed binder, FN3 domain) LPAPKNLVVSRVTEDSARLSWTAPDAAFDSFGITYYEPNHGGEAISLSVPGSERSYDPTGLKPGTEYWVVITGVKGGAPSTPLGAIFTT ? Thanks!
Result: 0.00107

Query: Could you please provide reported koff for P283AR9P1362_C12 (designed binder, FN3 domain) LPAPKNLVVSRVTEDSARLSWAKNLHSFDSFLIQYQESEKVGEAIVLTVPGSERSYDLTGLKPGTEYTVSIYGVDVKYDIDSRPISSNPLSAIFTT ? Thanks!
Result: 9.94e-05

Query: Could you please provide reported koff for P283BR9P1363_B6 (designed binder, FN3 domain) LPAPKNLVVSRVTEDSARLSWQRHSDAHPLFDSFLIQYQESEKVGEAIVLTVPGSERSYDLTGLKPGTEYTVSIYGVDVKWEGNRPVASNPLSAIFTT ? Thanks!
Result: 0.000269

Query: Could you please provide reported koff for P282DR9P1359_F2 (designed binder, FN3 domain) LPAPKNLVVSRVTEDSARLSWTAPDAAFDSFNIAYPEALHPGYGEAIVLTVPGSERSYDLTGLKPGTEYWVIIGGVKGGQKSWPLSAIFTTGGHHHDHH ? Thanks!
Result: 0.000722

Query: Could you please provide reported koff for P282DR9P1359_F5 (designed binder, FN3 domain) LPAPKNLVVSRVTEDSARLSWTAPDAAFDSFQIAYPEWPPPGEAIVLTVPGSERSYDLTGLKPGTEYFVIIQGVKGGVESWPLSAIFTT ? Thanks!
Result: 9.02e-05

Query: Could you please provide reported koff for P283AR9P1362_E9 (designed binder, FN3 domain) LPAPKNLVVSRVTEDSARLSWVPSPWGFDSFLIQYQESEKVGEAIVLTVPGSERSYDLTGLKPGTEYTVSIYGVDVKYDIDSRPISSNPLSAIFTT ? Thanks!
Result: 0.000327

Query: Could you please provide reported koff for P282DR9P1359_F7 (designed binder, FN3 domain) LPAPKNLVVSRVTEDSARLSWTAPDAAFDSFAIAYPEWPPQGEAIVLTVPGSERSYDLTGLKPGTEYFVVIYGVKGGSYSAPLSAIFTT ? Thanks!
Result: 0.000365
